Tested on: KERed from C. parapsilosis
Assay Notes: Inhibition study of the KERed (influence of metal cations and reagents)
Type: biochemical, Candida parapsilosis
Assay Setup: compound 0.1 mM; 35 mM 5-oxohexanoic acid ethyl ester, 0.2 mM NADH, pH 7.9
From the text: For the following investigation, partially purified enzyme (after Q-sepharose chromatography, 67-times enrichment) was used. […] 5-oxohexanoic acid ethyl ester TEA-NaOH-buffer, 0.1 M; pH 7.9 The influence of various metal cations and reagents upon the enzymatic activity was investigated in tests in which the test preparation described under example 3.B was used.
Answer 0 (no) if Residual Activity is under 20%, and 1 (yes) if it is 20% or more.

# Molecule, Assay Target, Category
data = [
    ("[Pb+2]", "KERed from C. parapsilosis", "0 (no)"),
    ("[Mg+2]", "KERed from C. parapsilosis", "1 (yes)"),
    ("[Mn+2]", "KERed from C. parapsilosis", "1 (yes)"),
    ("[Zn+2]", "KERed from C. parapsilosis", "1 (yes)"),
    ("[Cu+2]", "KERed from C. parapsilosis", "0 (no)"),
    ("CCOC(=O)OC(=O)OCC [Diethyl Pyrocarbonate]", "KERed from C. parapsilosis", "1 (yes)"),
    ("[Hg+2]", "KERed from C. parapsilosis", "0 (no)"),
    ("[Co+2]", "KERed from C. parapsilosis", "1 (yes)"),
    ("NC(=O)CI [Iodoacetamide]", "KERed from C. parapsilosis", "1 (yes)"),
    ("[Ca+2]", "KERed from C. parapsilosis", "1 (yes)"),
    ("[Ag+]", "KERed from C. parapsilosis", "0 (no)"),
    ("[Sn+2]", "KERed from C. parapsilosis", "1 (yes)"),
    ("[Fe+3]", "KERed from C. parapsilosis", "1 (yes)"),
    ("O=C(O)c1cc[c]([Hg+])cc1.[OH-] [p-Hydroxymercuribenzoate]", "KERed from C. parapsilosis", "0 (no)"),
]
